- assayed system: human CXCR4 receptor (wild type) (human, UniProt P61073 1-352)
- Sequence (P61073 whole entry): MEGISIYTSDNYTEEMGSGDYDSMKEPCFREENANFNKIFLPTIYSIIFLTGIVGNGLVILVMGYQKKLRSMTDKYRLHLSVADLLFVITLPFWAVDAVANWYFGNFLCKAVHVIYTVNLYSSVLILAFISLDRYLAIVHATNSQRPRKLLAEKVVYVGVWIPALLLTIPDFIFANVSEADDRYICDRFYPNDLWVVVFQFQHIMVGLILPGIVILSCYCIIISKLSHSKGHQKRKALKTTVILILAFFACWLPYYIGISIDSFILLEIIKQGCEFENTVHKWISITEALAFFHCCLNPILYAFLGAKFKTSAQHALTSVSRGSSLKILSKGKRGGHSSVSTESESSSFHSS
- protocol summary: cell-based or functional assay
experimental endpoint: percentage of inhibition of SDF-1-induced BRET increase (CXCR4 homo-dimers)

INSERT INTO results (binder, measured_value) VALUES
  ('humanized antibody Hz515H7 VH1 D76N VL2.1 (antibody, human IgG1, kappa, V domains shown) VH: EVQLVESGGGLVQPGRSLRLSCTASGFTFTDNYMSWVRQAPGKGLEWVGFIRNKANGYTTEYAASVKGRFTISRDNSKSIAYLQMNSLKTEDTAVYYCARDVGSNYFDYWGQGTLVTVSS VL: DIVMTQSPDSLAVSLGERATMSCKSSQSLFNSRTRKNYLAWYQQKPGQPPKLLIYWASARDSGVPDRFSGSGSETYFTLTISRVQAEDLAVYYCMQSFNLRTFGQGTKVEIKR', '~65%'),
  ('humanized antibody Hz515H7 VH1 D76N VL2.2 (antibody, human IgG1, kappa, V domains shown) VH: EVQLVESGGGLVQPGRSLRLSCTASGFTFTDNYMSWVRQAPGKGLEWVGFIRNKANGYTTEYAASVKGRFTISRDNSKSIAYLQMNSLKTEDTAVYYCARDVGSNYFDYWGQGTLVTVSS VL: DIVMTQSPDSLAVSLGERATMSCKSSQSLFNSRTRKNYLAWYQQKPGQPPKLLIYWASARDSGVPDRFTGSGSETYFTLTISRVQAEDVAVYYCMQSFNLRTFGQGTKVEIKR', '~33%'),
  ('humanized antibody Hz515H7 VH1 D76N VL2 (antibody, human IgG1, kappa, V domains shown) VH: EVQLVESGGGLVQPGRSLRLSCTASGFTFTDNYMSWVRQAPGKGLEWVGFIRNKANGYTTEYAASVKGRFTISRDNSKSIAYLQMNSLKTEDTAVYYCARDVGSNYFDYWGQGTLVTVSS VL: DIVMTQSPSSLAVSLGERATMSCKSSQSLFNSRTRKNYLAWYQQKPGQSPKLLIYWASARDSGVPARFTGSGSETYFTLTISRVQAEDLAVYYCMQSFNLRTFGQGTKVEIKR', '~88%'),
  ('humanized antibody Hz515H7 VH1 D76N VL2.3 (antibody, human IgG1, kappa, V domains shown) VH: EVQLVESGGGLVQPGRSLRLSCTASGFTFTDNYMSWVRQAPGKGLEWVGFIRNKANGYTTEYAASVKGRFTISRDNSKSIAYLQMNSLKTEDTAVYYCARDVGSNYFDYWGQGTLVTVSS VL: DIVMTQSPDSLAVSLGERATMSCKSSQSLFNSRTRKNYLAWYQQKPGQPPKLLIYWASARDSGVPDRFTGSGSETYFTLTISSLQAEDLAVYYCMQSFNLRTFGQGTKVEIKR', '~21%');

All values here come from patent US20110020218A1.
